Hi there, I'd appreciate the recorded gamma-GTP for every entry that follows.
Species: Rattus norvegicus
protocol: Open TG-GATES - Regimen: Single
Type: toxicity, organism-based, Sprague-Dawley
Design: regimen Single, gender Male, age 6 weeks
condition_info: in vivo, po, 0 mg/kg, 24 h, tissue Plasma, route gavage, dose level Control
Give bare numbers, in IU/L.

List the reported gamma-GTP of each molecule below.
1. C[C@H]1O[C@H](O[C@H]2[C@H](O)[C@@H](O)[C@@H](O[C@H]3[C@H](O)[C@@H](O)C(O)O[C@@H]3CO)O[C@@H]2CO)[C@H](O)[C@@H](O)[C@@H]1N[C@H]1C=C(CO)[C@@H](O)[C@H](O)[C@H]1O (some centres undefined)
2. Cc1cccc(C)c1OCC(C)N (centres undefined)

Reply:
[1, 1.8]

Report gamma-GTP for each item below.
1. C[C@H]1C(=O)O[C@@H]2CCN3CC=C(COC(=O)[C@](C)(O)[C@]1(C)O)[C@H]23
2. CCOC(=O)C(C)(C)Oc1ccc(Cl)cc1 [CLOFIBRATE]
3. OCCN1CCN(CCCN2c3ccccc3Sc3ccc(C(F)(F)F)cc32)CC1
4. O=[N+]([O-])c1ccc(O)c([N+](=O)[O-])c1
5. C=C(C)[C@H]1Cc2c(ccc3c2O[C@@H]2COc4cc(OC)c(OC)cc4[C@@H]2C3=O)O1
6. Cc1ccc2cc3c(ccc4ccccc43)c3c2c1CC3

Reply:
1. 1
2. 1
3. 1.8
4. 0.2
5. 0.6
6. 0.8

Query: Item under review: "Cn1cc[nH]c1=S" . Reported gamma-GTP?
Reply: 1

Reference for the values: ChEMBL document CHEMBL3885861
